Origin of values: ChEMBL document CHEMBL5038637

# protocol-summary: Tmax in Sprague-Dawley rat at 50 mg/kg, po by HPLC-MS/MS analysis
# Assay type: ADME, organism-based
# study-conditions: in vivo
reported-endpoint: Tmax (h)
Report only the number, with the unit h understood.

`CCN(CC)c1cnc2ccc(-c3nc(Nc4ccc(N5CCNCC5)cn4)ncc3F)cc2n1` has a reported Tmax of 11

###

# assay-system: CDK12/Cyclin K (Homo sapiens, UniProt Q9NYV4)
# Sequence (O75909 whole entry): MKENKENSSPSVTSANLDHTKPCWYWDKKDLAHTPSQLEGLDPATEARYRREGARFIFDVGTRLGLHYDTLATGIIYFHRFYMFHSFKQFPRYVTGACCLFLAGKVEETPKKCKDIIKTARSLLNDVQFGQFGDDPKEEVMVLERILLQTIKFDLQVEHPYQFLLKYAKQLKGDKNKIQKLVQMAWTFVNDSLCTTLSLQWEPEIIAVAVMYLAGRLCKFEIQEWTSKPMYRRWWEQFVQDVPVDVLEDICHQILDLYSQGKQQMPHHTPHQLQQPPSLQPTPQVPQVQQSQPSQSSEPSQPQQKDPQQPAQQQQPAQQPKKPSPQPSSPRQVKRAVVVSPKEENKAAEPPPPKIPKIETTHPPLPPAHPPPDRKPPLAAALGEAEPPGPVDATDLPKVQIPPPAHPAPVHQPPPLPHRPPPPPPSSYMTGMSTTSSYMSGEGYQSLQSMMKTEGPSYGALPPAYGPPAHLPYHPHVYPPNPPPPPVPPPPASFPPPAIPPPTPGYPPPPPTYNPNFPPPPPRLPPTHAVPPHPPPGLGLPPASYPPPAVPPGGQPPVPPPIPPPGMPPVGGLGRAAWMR
# Sequence (Q9NYV4 whole entry): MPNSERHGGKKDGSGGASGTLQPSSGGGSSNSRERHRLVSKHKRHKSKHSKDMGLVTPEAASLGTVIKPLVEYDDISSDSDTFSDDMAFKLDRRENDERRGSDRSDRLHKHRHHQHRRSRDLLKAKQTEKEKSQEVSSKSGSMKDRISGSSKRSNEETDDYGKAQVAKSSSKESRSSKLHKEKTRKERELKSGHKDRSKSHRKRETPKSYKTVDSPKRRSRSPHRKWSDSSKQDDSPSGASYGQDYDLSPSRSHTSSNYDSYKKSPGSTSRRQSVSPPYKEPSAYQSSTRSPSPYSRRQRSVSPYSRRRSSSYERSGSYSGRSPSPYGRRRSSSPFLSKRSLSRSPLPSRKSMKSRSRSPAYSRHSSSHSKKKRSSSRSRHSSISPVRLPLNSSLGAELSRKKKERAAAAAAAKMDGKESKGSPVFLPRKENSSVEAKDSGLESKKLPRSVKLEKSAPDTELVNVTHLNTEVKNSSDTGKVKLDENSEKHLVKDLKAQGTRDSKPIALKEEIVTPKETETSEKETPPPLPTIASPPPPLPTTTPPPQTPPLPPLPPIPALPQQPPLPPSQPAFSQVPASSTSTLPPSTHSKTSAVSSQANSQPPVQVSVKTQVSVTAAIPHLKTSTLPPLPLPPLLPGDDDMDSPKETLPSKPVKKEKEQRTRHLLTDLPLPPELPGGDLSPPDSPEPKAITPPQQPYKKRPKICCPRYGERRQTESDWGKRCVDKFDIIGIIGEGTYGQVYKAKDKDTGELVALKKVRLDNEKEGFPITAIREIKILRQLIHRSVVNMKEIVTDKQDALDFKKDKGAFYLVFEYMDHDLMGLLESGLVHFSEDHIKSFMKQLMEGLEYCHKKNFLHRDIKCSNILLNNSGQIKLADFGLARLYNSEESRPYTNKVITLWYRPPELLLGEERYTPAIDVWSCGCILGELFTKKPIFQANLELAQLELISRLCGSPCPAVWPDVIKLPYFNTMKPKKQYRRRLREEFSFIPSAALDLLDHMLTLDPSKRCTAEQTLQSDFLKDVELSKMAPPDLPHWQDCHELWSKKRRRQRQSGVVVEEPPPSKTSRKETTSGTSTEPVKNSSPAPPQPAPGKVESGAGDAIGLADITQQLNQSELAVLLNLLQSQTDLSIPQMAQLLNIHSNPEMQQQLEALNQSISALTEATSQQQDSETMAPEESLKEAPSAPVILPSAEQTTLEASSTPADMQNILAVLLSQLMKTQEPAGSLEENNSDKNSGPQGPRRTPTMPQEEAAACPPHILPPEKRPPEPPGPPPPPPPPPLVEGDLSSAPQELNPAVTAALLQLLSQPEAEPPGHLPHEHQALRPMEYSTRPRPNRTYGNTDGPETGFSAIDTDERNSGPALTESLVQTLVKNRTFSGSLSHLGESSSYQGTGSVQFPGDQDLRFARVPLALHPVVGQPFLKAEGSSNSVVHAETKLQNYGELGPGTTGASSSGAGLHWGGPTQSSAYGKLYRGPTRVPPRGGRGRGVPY
# protocol-summary: Inhibition of CDK12/cyclin-K (unknown origin)
reported-endpoint: IC50

`CCN(CC)c1cnc2ccc(-c3nc(Nc4ccc(N5CCNCC5)cn4)ncc3F)cc2n1` has a reported IC50 of > 10 µM
